assay: Effect of temperature (and pH) on the stability of the solution (purity); type: physicochemical; conditions: 7% solution in water, pH 3.7, day 21, 25° C.
recorded.endpoint: Purity(%) at day 21 (25° C.)
Remember to put the unit after the number in your answer.

Exam item: Requested field: Purity(%) at day 21 (25° C.). Item: CCN(CC)CCOC(=O)COc1nn(Cc2ccccc2)c2ccccc12.Cl
Marked response: 95.6 ± 0.2%

Exam item: Now give it for CCN(CC)CCOC(=O)COC(=O)Cc1c(C)n(C(=O)c2ccc(Cl)cc2)c2ccc(OC)cc12.Cl too.
Marked response: 97.1 ± 0.1%

Exam item: Now give it for CCN(CC)CCOC(=O)CC1=C(C)C(=Cc2ccc([S+](C)[O-])cc2)c2ccc(F)cc21.Cl (stereo not drawn) too.
Marked response: 96.8 ± 0.2%

Exam item: Now give it for CCN(CC)CCOC(=O)CCc1ccc2cc(OC)ccc2c1.Cl too.
Marked response: 97.3 ± 0.2%

Exam item: Now give it for CCN(CC)CCOC(=O)Cc1c(C)n(C(=O)c2ccc(Cl)cc2)c2ccc(OC)cc12.Cl too.
Marked response: 97.3 ± 0.3%

Exam item: Now give it for CCN(CC)CCOC(=O)CCc1nc(-c2ccccc2)c(-c2ccccc2)o1.Cl too.
Marked response: 94.5 ± 0.2%

Exam item: Now give it for CCN(CC)CCOC(=O)C(C)c1ccc(-c2ccccc2)c(F)c1.Cl (racemic) too.
Marked response: 97.5 ± 0.1%

Exam item: Now give it for CCN(CC)CCOC(=O)C(C)c1ccc2oc(-c3ccc(Cl)cc3)nc2c1.Cl (stereo not drawn) too.
Marked response: 96.6 ± 0.2%

Exam item: Now give it for CCN(CC)CCOC(=O)Cc1ccc(C(=O)c2ccc(C)cc2)n1C.Cl too.
Marked response: 95.6 ± 0.2%

###

Task for the reader: assign each of the following compounds its reported Purity (%) at Day 3.
assay: Effect of concentration on the stability of the solution (purity over time); conditions: 0.01 wt % in 50% ethanol, 25° C.

Exam item: Requested field: Purity (%) at Day 3. Item: CC(C)OC(=O)c1ccccc1 [Isopropyl benzoate, reference compound]
Marked response: 98.1%

Exam item: Now give it for CCOC(=O)c1ccccc1 [Ethyl benzoate, reference compound] too.
Marked response: 97.4%

Exam item: Now give it for CC(C)(C)OC(=O)C(N)Cc1ccccc1 (centres unmarked) [t-Butyl 2-amino-3-phenylpropanoate, reference compound] too.
Marked response: 92.1%

Exam item: Now give it for CC(C)OC(=O)C(N)Cc1ccccc1 (centres unmarked) [Isopropyl 2-amino-3-phenylpropanoate, reference compound] too.
Marked response: 97.4%

Exam item: Now give it for CC(C)(C)OC(=O)c1ccccc1 [t-Butyl benzoate, reference compound] too.
Marked response: 0.0%

###

test: Effect of pH value on the stability of the solution (purity); type: physicochemical; conditions: day 28, pH 4.3, 7% in 25% ethanol, 25° C.
Task for the reader: assign each of the following compounds its reported Purity(%) from day 0-28.

Exam item: Requested field: Purity(%) from day 0-28. Item: CC(C)Cc1ccc([C@@H](C)C(=O)OC[C@@H]2CCCN2)cc1.Cl
Marked response: 96.5 ± 0.4%

Exam item: Now give it for CC(C)Cc1ccc([C@@H](C)C(=O)OCCN(C)C)cc1.Cl (racemic) too.
Marked response: 96.8 ± 0.3%

Exam item: Now give it for CC(C)Cc1ccc([C@@H](C)C(=O)OCCC2CCNCC2)cc1.Cl (racemic) too.
Marked response: 96.3 ± 0.3%

Exam item: Now give it for CC(C)Cc1ccc(C(C)C(=O)OCCN2CCCCC2)cc1.Cl (racemic) too.
Marked response: 95.9 ± 0.2%

Exam item: Now give it for CCCCN(CCCC)CCOC(=O)C(C)c1ccc(CC(C)C)cc1.Cl (racemic) too.
Marked response: 97.3 ± 0.3%

Exam item: Now give it for CC(C)Cc1ccc([C@@H](C)C(=O)OCCN2CCCC2)cc1.Cl (racemic) too.
Marked response: 96.4 ± 0.2%
